# systemTested: T1, hPRLR.mmh (soluble monomeric human PRLR) (Homo sapiens, UniProt P16471)
# T1 construct: soluble monomeric (hPRLR.mmh); mmh (myc-myc-hexahistidine)
# T1 sequence (P16471 with tags, fused parts or gaps): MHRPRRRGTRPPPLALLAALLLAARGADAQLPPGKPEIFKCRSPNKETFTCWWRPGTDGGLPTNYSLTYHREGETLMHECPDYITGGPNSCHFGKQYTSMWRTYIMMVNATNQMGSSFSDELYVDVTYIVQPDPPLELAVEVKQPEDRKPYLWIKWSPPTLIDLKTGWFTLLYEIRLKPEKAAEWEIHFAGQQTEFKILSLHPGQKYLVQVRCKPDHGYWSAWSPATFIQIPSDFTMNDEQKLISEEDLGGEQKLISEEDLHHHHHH
# assayExplanation: Surface plasmon resonance (Biacore T200), mAb-capture format
# Type: binding
# conditionSet: 25° C., antibody-capture format, analyte hPRLR.mmh
readout: pKd
pKd here: minus log base 10 of the concentration, concentration in moles per litre.

Identify the reported pKd for the following entry. H1H6790P: anti-PRLR antibody, human IgG1 Fc; HCVR/LCVR SEQ ID NOs 114/122 (antibody, V domains shown, human IgG1 Fc) VH: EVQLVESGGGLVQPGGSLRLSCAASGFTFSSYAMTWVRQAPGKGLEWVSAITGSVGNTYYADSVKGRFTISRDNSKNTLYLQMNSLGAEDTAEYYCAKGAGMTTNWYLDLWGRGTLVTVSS VL: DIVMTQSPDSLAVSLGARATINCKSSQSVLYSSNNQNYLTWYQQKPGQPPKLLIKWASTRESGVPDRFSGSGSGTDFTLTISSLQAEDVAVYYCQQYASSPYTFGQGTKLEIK
8.85

State its pKd: H1H6976N: human IgG1 Fc form of H2M6976N; anti-PRLR; HCVR/LCVR SEQ ID NOs 386/394 (antibody, V domains shown, human IgG1 Fc) VH: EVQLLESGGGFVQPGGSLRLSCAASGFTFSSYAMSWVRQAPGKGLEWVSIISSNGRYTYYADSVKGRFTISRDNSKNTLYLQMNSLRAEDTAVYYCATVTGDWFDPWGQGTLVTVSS VL: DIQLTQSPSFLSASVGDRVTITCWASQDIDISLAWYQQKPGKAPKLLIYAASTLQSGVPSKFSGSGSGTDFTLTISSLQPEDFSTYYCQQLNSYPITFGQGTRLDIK
8.80

Assign pKd to the following record: H1H6803P: anti-PRLR antibody, human IgG1 Fc; HCVR/LCVR SEQ ID NOs 226/234 (antibody, V domains shown, human IgG1 Fc) VH: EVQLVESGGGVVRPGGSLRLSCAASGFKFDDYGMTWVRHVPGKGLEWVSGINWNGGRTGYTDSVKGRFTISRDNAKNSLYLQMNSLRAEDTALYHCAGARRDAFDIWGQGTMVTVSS VL: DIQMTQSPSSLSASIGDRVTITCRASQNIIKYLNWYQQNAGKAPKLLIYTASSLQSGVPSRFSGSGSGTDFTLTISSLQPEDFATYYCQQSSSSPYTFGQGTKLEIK
8.78

Hello, please tell me recorded pKd for this one: H1H6797P: anti-PRLR antibody, human IgG1 Fc; HCVR/LCVR SEQ ID NOs 178/186 (antibody, V domains shown, human IgG1 Fc) VH: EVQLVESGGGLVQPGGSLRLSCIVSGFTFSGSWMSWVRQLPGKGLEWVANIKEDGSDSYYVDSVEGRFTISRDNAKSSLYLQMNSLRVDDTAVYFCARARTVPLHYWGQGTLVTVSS VL: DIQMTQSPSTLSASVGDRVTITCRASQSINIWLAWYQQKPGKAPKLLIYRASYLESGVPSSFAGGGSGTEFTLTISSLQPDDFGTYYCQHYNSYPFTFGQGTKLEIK
8.76

FYI, the data here is from patent US9688764B2.
